Cited source: patent US8703961B2

# test_target: MST4 (Homo sapiens, UniProt Q9P289)
# Sequence (Q9P289 whole entry, species assumed): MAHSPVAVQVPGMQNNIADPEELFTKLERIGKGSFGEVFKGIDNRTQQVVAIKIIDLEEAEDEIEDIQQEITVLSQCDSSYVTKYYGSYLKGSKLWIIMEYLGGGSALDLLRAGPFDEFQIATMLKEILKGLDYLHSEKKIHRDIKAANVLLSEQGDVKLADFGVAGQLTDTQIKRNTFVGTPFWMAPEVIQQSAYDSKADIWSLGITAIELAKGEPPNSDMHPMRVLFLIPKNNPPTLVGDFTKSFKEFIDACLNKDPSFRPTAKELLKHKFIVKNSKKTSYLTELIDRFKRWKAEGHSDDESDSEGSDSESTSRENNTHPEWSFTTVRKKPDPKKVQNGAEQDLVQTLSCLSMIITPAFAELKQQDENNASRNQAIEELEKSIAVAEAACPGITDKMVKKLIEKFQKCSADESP
pIC50: −log10 of the molar value.
Listing: pIC50 of selected compounds

{"columns": ["compound", "pIC50"],
 "data": [
  ["CC(C)(C)OC(=O)Nc1ncsc1C#CCN1C(=O)c2ccccc2C1=O [Compound A26]", "4.00 to 5.00"],
  ["Nc1ncsc1C#Cc1cnc2[nH]ccc2c1 [Compound A22]", "5.00 to 6.00"],
  ["c1ccc(Cc2c[nH]c3ncsc23)cc1 [Compound A7, 6-benzyl-4H-pyrrolo[2,3-d]thiazole]", "< 6.00"],
  ["Nc1ncsc1C#Cc1cccc(O)c1 [Compound A27, 3-(4-aminothiazol-5-ylethynyl)phenol]", "< 6.00"],
  ["CC(C)(C)OC(=O)Nc1nc(-c2ccncc2)sc1C#CCN1CCOCC1 [Compound A25]", "< 6.00"]
]}
